# measurement-description: yeast display, Sf9 membrane polyspecificity reagent, FACS + sequencing; frameworks hold sequencing errors
metric-name: polyreactivity (PSR sort gate)

In the examples that follow, each entry is paired with its recorded polyreactivity (PSR sort gate).
QVQLVESGGGLVQAGGSHRLSCAASGRIFALNAMGWYRQAPGKERELVDAIDTSSGDTYYADSVKGRFTISRDNAKNTVNLQMNCLKPEDTAVYYCAAEGLSPYAYVFSNYDYWGQGTQVTVSS :: low polyreactivity
QVQLVESGGGLVQAGGSLRLSCAASGRTCWSYAMGWYRQAPGKEREVVATITGRGGSTYYADSVKGRFTISRDNAKNTVYLQRNSLKPEDTAVYYCAVRSKYRRTFGSWGQGTQVTVSS :: high polyreactivity
QVQLVESGGGLVQAGGSLRLSCAASGLIFSYNAMGWYRPATGNERELVATIRRVGSTNYADSVKGRFTISRDNAKITVYLQMNSLKPEDTAVYYCAARSLRYGRGMYYWGQGTQVTVSS :: high polyreactivity
QVQLVESAGGLVQAGGSLRLSSAASGYNFCSYAMGWYRQAPGKEREFVATISASGGRTYYADSVKGRFTISRDNAKNTVYLQMNSMKPEDTAVYYCNADPGNHAYWYYVEFYYYTYDYWGQGTQVTVSS :: low polyreactivity

Turning now to a further sequence:
The sequence "QVQLEESGGGLVQAGCSLRLSCAASGRIFHFYAIGRYRQAPGKERELVAVINGGGSTYYADSVKGRFTISRDNAKNTVYLQMNSLKPEVTAVYYCAADVYLSRYEKYGYWGQGTQVTVSS" showed polyreactivity (PSR sort gate) equal to high polyreactivity

====

# measurement-description: yeast display, Sf9 membrane polyspecificity reagent, FACS + sequencing; frameworks hold sequencing errors
metric-name: polyreactivity (PSR sort gate)

QVQLVESGGGLVQAGGSLRLSCAASGRIFFFNTMGWYRQAPGKERELVARINRGGRTNYADSVKGRFTISRDNAKNTVYLQMNSLKPEDTAVYYCAADRTWYKLETTEYDYWGQGTQVTVSS :: high polyreactivity
QVQLVESGGGLVQAGGSLRLSCAASGSISYEYAMGWYRPAPGKERELVASIDSDGAGTYYADSVKGRFTISRDNAKNTDYLQMNSLKPEDTAVYYCNAEWYYPYYYSRMDYWGQGTQVTVSS :: low polyreactivity
QVQLVESGGGLVQAGGSHRLSCAATGIIFARNAMGWYRQAPGKERELVAGINGGRTNYADSVKGRFTISRDNAKNTVYLQMNSLKPEDTAVYYCAARLGRVKYDHWGQGTQVTVSS :: high polyreactivity
QVQLVESGGGLVQAGGSLRLICAASGSTFKYNAMGWYRQAPGKERELVAAITYSGSSTYYADSVKGRFTISRDNAKNTVYLQMNSLKPEDTAVYYCAAGDLAKYRSYSYYYWGQGTQVTLSS :: high polyreactivity

Turning now to a further sequence:
The sequence "QVQLVESGGGLVQAGGSLRLICASSGCTFGDYAMGWYRQEPGKERELVAAITIGGITTYADSVKGRFTISRDTAKYTVYLQRNSLKPEDTAVYYCAAAERGHWDDYWGQGTQVTVSS" showed polyreactivity (PSR sort gate) equal to low polyreactivity

====

# measurement-description: yeast display, Sf9 membrane polyspecificity reagent, FACS + sequencing; frameworks hold sequencing errors
metric-name: polyreactivity (PSR sort gate)

QVQLVESGGGLVQAGGSLRLSCAASGSNFDPIVMGGYRKAPGKERELVAAIDVSGGSTYYADSVKGRFTISRDNAKNTVYLQMNSLKPEDTAVYYCAADAEGSASKYDYWGQGTQVTVSS :: low polyreactivity
QVQLVESGGGLVQAGGSLRLSCAASGRTFGYYAMGWYRQAPGKERELVAAITRTGGSTHYADSVKGRFTISRDNAKNTVYLQMNSLKPEDTAVYYCARDYRYTIPYDYWGQGTQVTVSS :: low polyreactivity
QVQLEESGGGLVQAGGSLRLSCAASGSTFYYNAMGWYRQAPGKEREFVARISRSGGSTYADSVKGRFTISRDNAKNTVYLQMNSLKPEDTGVYYCNADAYGTPEFTSYAVRYDYWGQGTQVTVSS :: low polyreactivity
QVQQQESGGGLVQAGGSLRLSSAASVTILYTLGLGLYRQAPGKTLEFVASITWGTTTNYAESVKGRFTISRDNAKNSVYLQMNSLKPEDTADYYCAARKFVYWYGMEYWGQGTQVTVSS :: low polyreactivity

The sequence "QVQLVESGGGLVQAGGSLRLSCAASGSTFTGYTMGWYRQAPGKERELVAAITYRGGSTYYADSVKGRFTISRDNAKNTVYLQMNSLKPEDSAVYYCAAVAVYYEYSPYDYWGQGTQLTVSS" showed polyreactivity (PSR sort gate) equal to low polyreactivity

The sequence "QVQLVESGGGLVQAGGSLRLSCAASGSIFRRNTMGWYRQAPGKERELVAAISTRGGSTYYADSVKGRFTISRDNAKNTVYLQMNSLKPEDTAVYYCNTRGYYIVHRGYDYWGQGTQVTVSS" showed polyreactivity (PSR sort gate) equal to high polyreactivity

The sequence "QGQLVESGGGLVQAGGSLRLSCAPSGGTFEFYTMGWYRQAPGKERELVAVINASGDSTYYADSVKGRFTISRDNAKNTVYLQMNSLKPEDTAVYYCAADHRGEYDYWGQGTQVTVSS" showed polyreactivity (PSR sort gate) equal to low polyreactivity

The sequence "QVQLVESGGGLVLAGGSLRLSCPASGFTFRYYAMGWSRQAPGKDRELVAAISVSGGSTYYADSVKGRFTISRDNAKNSVYLQMNILKPEDTAVYYCNARRNVGFGYWGQGTQVTVSS" showed polyreactivity (PSR sort gate) equal to high polyreactivity

The sequence "QVQLVESGRGLVQAGGSLRLSCAASGITFEYYAMGWYRQAPGKERELVAAIDTGGSTNYADSVKGRFTISRDNAKNTVYLQMNSLKPEDTAVYYCAADWSWWDGEDYHFEYDYWGQGTQVTVSS" showed polyreactivity (PSR sort gate) equal to low polyreactivity

The sequence "QVQLVESGGGLVQPGGSLRLSCAASGSIASYAMGWYRQAPGKERELVAGISWSGGSTYYADSVKGRFTISRDNAKNTVYLQMNSLKPEDTAVYYCNAYSAFVPPTRGYYWGQGTQVTVSS" showed polyreactivity (PSR sort gate) equal to high polyreactivity

The sequence "QVQLVESGGGLVQAGGSLRLSCAASGFTFTEYAMGWYRQAPGKERELVADITWSGGITYYADSVKGRFTISRDNAKNTVYLQMNSLKPEDTAVYYCNADYIYSYFYIRYDYWGQGTQVTVSS" showed polyreactivity (PSR sort gate) equal to low polyreactivity

Reference for the values: the nanobody polyreactivity screen of Harvey et al. (2022)
